Biological target: Calmodulin-1 (Homo sapiens)
Assay: small molecules binding calmodulin-1 with EGTA – biochemical, small-molecule microarray, Cy5-labelled CALM1, profiling panel (AID 1111);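 further: labelled calmodulin applied in Tris saline Tween buffer holding calcium plus EGTA and DTT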
Conditions: Cy5-CALM1 binding fluorescence, higher = more signal

[
  {
    "Compound": "CC(C)C(CO)N1C(=O)[C@@H]2[C@H]3C(=O)OCC=C[C@H]3OC23C=CCN(c2ccc(Cl)cc2)C(=O)[C@@H]13 (stereo not given in full)",
    "composite z-score": -0.871
  },
  {
    "Compound": "CC(C)c1ccc(NN2C(C(O)c3ccc(F)cc3)C=CC3C(=O)N(c4ccccc4)C(=O)C32)cc1 (stereo not given)",
    "composite z-score": 1.24
  },
  {
    "Compound": "COc1ccc(C#Cc2ccc3c(c2)[C@]2(C(=O)N3)[C@H](c3ccc(O)cc3)N3[C@H](c4ccccc4)[C@H](c4ccccc4)OC(=O)[C@H]3[C@@H]2C(=O)Nc2nc3ccccc3s2)cc1",
    "composite z-score": 1.11
  },
  {
    "Compound": "CCCCC(CC)C(O)C1C=CC2C(=O)N(c3ccccc3)C(=O)C2N1Nc1ccc(C#N)cc1 (stereo not given)",
    "composite z-score": 1.35
  },
  {
    "Compound": "C=C(C(=O)CC[C@H](OC(=O)c1ccccc1-c1ccccc1C(=O)O)c1cccc(OCCO)c1)C(C)C",
    "composite z-score": -0.119
  },
  {
    "Compound": "CC[C@@H]1O[Si](C(C)C)(C(C)C)c2c1cc(-c1cc(C)c(OC)c(C)c1)nc2-c1ccc(Oc2ccccc2)cc1",
    "composite z-score": -0.162
  },
  {
    "Compound": "COCC(=C=CC[C@H](O)c1ccc(CO)o1)CCO",
    "composite z-score": -0.0876
  },
  {
    "Compound": "CC(CO)N1C(=O)[C@@H]2[C@H]3C(=O)OCC=C[C@H]3OC23C=CCN(Cn2nnc4ccccc42)C(=O)[C@@H]13 (stereo not given in full)",
    "composite z-score": -0.196
  },
  {
    "Compound": "CCCCCCCCCCC(O)C1C=CC2C(=O)N(c3ccccc3)C(=O)C2N1Nc1ccc(C#N)cc1 (stereo not given)",
    "composite z-score": 2.48
  },
  {
    "Compound": "CCCCCCc1nc(Cc2cc(OC)c(OC)c(OC)c2)cc2c1[Si](C(C)C)(C(C)C)OC2",
    "composite z-score": -0.112
  },
  {
    "Compound": "C=CC[C@@]1(C(=O)NCCCOC)N=C(c2ccc(OCCCO)cc2)O[C@@H]1c1ccccc1N=[N+]=[N-]",
    "composite z-score": 0.968
  },
  {
    "Compound": "CC(C)=C1C(=O)C(c2ccccc2)=C2CN3C(=O)N(CCc4ccccc4)C(=O)[C@]3(Cc3ccc(C(F)(F)F)cc3)[C@H]21",
    "composite z-score": 1.66
  },
  {
    "Compound": "COC(=O)[C@@]1(Cc2ccccc2)[C@H]2c3cc(C(=O)N(C)C)n(Cc4ccc(C)o4)c3C[C@H]2CN1C(=O)c1ccccc1",
    "composite z-score": 1.69
  },
  {
    "Compound": "CCOC(=O)C[C@H]1[C@H](OC(=O)c2ccccc2-c2ccccc2)[C@@H](NC(=O)c2ccc3ccccc3n2)c2cc(OCCCO)ccc2N1C(=O)Cc1ccc(OC)cc1",
    "composite z-score": -0.216
  },
  {
    "Compound": "CC(C)N1CC=CC23O[C@@H]4C=CCCOC(=O)C4[C@H]2C(=O)N(CCCO)[C@@H]3C1=O (stereo not given in full)",
    "composite z-score": -0.544
  },
  {
    "Compound": "[N-]=[N+]=Nc1ccccc1C[C@]1(C(=O)NCC(O)CO)COC(c2ccc(OCCCO)cc2)=N1 (stereo not given in full)",
    "composite z-score": 1.32
  },
  {
    "Compound": "Cc1ccc(S[C@]2(C(=O)NCC(F)(F)F)CC(=O)N(Cc3cc(C(F)(F)F)cc(C(F)(F)F)c3)[C@@H]2c2ccc(CO)cc2I)cc1",
    "composite z-score": -0.364
  },
  {
    "Compound": "Cc1ccccc1C(O)C1C=CC2C(=O)NC(=O)C2N1Nc1ccccn1 (stereo not given)",
    "composite z-score": -0.285
  },
  {
    "Compound": "CN(C)C(=O)[C@]1(CCC(=O)OC(C)(C)C)N=C(c2ccc(OCCCO)cc2)O[C@@H]1c1ccccc1CN=[N+]=[N-]",
    "composite z-score": 2.31
  },
  {
    "Compound": "COCCOC(=O)N1C(=O)[C@@]2(c3cc(C#CCCO)ccc31)[C@H](C(=O)Nc1nc3ccccc3s1)[C@H]1C(=O)O[C@H](c3ccccc3)[C@H](c3ccccc3)N1[C@@H]2c1ccc(O)cc1",
    "composite z-score": 0.999
  },
  {
    "Compound": "COCCOC(=O)N1C(=O)[C@@]2(c3ccccc31)[C@H](C(=O)NC[C@H](O)c1ccccc1)[C@H]1C(=O)O[C@H](c3ccccc3)[C@H](c3ccccc3)N1[C@@H]2c1ccc(O)cc1",
    "composite z-score": 0.573
  },
  {
    "Compound": "CC(C)N1C(=O)c2ccccc2[C@@H](C(=O)NCCN2CCOCC2)[C@@H]1c1ccc(CO)cc1",
    "composite z-score": -0.346
  },
  {
    "Compound": "CCCNC(=O)[C@@]1(C)c2ccccc2C(=O)N(c2ccc(C)cn2)[C@H]1c1ccc(CO)cc1",
    "composite z-score": -0.474
  },
  {
    "Compound": "COC(=O)[C@@H]1N=C(c2ccc(OCCCO)cc2)O[C@@H]1c1ccccc1",
    "composite z-score": -0.494
  },
  {
    "Compound": "CCOC(=O)C1=C[C@@H](c2ccccc2)N(S(=O)(=O)c2ccc(C)cc2)[C@H]1c1ccc(OC)cc1",
    "composite z-score": 1.6
  },
  {
    "Compound": "CCCCCN1CC=CC23O[C@@H]4/C=C\\CCCOC(=O)C4[C@H]2C(=O)N(C(C)CO)[C@@H]3C1=O (stereo not given in full)",
    "composite z-score": -0.452
  },
  {
    "Compound": "CC(C)C(CO)N1C(=O)[C@@H]2C3C(=O)OCCC/C=C\\[C@H]3OC23C=CCN(c2ccc4ccccc4c2)C(=O)[C@@H]13 (stereo not given in full)",
    "composite z-score": -0.14
  },
  {
    "Compound": "CCCC[C@@H](O)C1=C(COc2ccccc2)C[C@H]2C(=O)N(Cc3ccccc3)C(=O)[C@H]2[C@H]1CO",
    "composite z-score": 0.422
  },
  {
    "Compound": "NC(=O)[C@H]1[C@@H]2C(=O)O[C@@H](c3ccccc3)[C@@H](c3ccccc3)N2[C@@H](c2ccc(OCCO)cc2)[C@]12C(=O)Nc1ccc(C#CCCO)cc12",
    "composite z-score": 0.947
  },
  {
    "Compound": "COc1ccc([C@H]2OC[C@@H]3C[C@H](Cc4ccccc4)C(=O)N32)cc1",
    "composite z-score": 0.106
  }
]
